# system name: native human Bradykinin B1 receptor (Homo sapiens, UniProt P46663)
# Construct: which express native human Bradykinin B1 receptor after induction with human IL-10; Coriell Institute
# assay explanation: Calcium flux Assay (FLIPR) with human fibroblasts expressing Bradykinin B1 receptor (hB1 IMR-90)
# applied conditions: IMR-90 human fibroblasts expressing native Bradykinin B1 receptor
pIC50: −log10 of the molar value.
endpoint label: pIC50

Cc1cc(-c2c(F)cc(NC(=O)C3(c4ccc(C(F)(F)F)cc4F)CC3)cc2-c2nnn[nH]2)ccn1	8.64
CCOc1ccc(-c2ccc(NC(=O)C3(c4cccc(C(F)(F)F)c4)CC3)cc2-c2nnn[nH]2)cc1OC	7.60

[P] CC(F)(F)c1ccc(-c2ccc(NC(=O)C3(c4ccc(C(F)(F)F)cc4F)CC3)cc2-c2nnn[nH]2)cn1
[Q] Cc1cc(-c2ccc(NC(=O)C3(c4cccc(Cl)c4F)CC3)cc2-c2nnn[nH]2)ccn1
Lookup: Kindly identify which of P and Q has the larger recorded pIC50 value. I would appreciate it if you answered with the label of your choice.
Found: P
(P: 8.21, Q: 7.72)

* * *

# system name: human Bradykinin B1 receptor (Homo sapiens)
# Construct: host or cells: CHO-K1
# Sequence (P46663 1-353): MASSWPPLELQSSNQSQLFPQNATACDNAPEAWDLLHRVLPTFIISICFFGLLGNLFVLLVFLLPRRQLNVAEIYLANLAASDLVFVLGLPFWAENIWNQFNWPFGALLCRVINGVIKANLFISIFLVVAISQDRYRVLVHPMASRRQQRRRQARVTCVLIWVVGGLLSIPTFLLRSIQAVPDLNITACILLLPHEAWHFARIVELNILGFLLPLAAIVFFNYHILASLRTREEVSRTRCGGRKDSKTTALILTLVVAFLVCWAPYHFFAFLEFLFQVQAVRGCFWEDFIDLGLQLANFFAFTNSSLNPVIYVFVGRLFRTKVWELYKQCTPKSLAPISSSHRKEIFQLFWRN
# assay explanation: Calcium flux Assay (FLIPR) with recombinant CHO-K1 cells expressing human Bradykinin B1 receptor, in presence (hB1 IC50) or absence (hB1 free IC50) of 0.1% BSA
# Assay type: cell-based
# applied conditions: in presence of 0.1% BSA, read-out: hB1 IC50
endpoint label: IC50 (nM)

CCOc1ccc(-c2ccc(NC(=O)C3(c4cccc(CC)c4)CC3)cc2-c2nnn[nH]2)cn1	14.5

[a] CCCOc1ccc(-c2ccc(NC(=O)C3(c4ccc(C(F)(F)F)cc4)CC3)cc2-c2nnn[nH]2)cn1
[b] COc1ccc(-c2ccc(NC(=O)C3(c4ccc(F)cc4)CC3(C)C)cc2-c2nnn[nH]2)cc1OC (stereo not shown)
Lookup: Pick one, a or b : lowest reported IC50. Kindly state the label of the option you pick.
Found: a
(a: 16.6 nM, b: 1370 nM)

* * *

# system name: human Bradykinin B1 receptor (Homo sapiens)
# Construct: host or cells: CHO-K1
# Sequence (P46663 1-353): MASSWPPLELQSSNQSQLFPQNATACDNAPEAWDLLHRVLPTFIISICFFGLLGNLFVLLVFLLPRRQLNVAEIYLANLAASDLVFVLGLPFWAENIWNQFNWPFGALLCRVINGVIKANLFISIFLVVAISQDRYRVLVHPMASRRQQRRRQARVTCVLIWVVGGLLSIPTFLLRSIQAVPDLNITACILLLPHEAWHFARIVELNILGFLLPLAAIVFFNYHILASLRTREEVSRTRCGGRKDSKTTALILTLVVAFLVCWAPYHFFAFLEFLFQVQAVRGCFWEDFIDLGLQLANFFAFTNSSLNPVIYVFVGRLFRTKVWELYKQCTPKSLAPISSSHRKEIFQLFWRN
# assay explanation: Calcium flux Assay (FLIPR) with recombinant CHO-K1 cells expressing human Bradykinin B1 receptor, in presence (hB1 IC50) or absence (hB1 free IC50) of 0.1% BSA
# Format: cell-based
# applied conditions: in absence of 0.1% BSA, read-out: hB1 free IC50
pIC50: −log10 of the molar value.
endpoint label: pIC50

Solved cases below.
COCc1ccc(-c2ccc(NC(=O)C3(c4ccc(F)cc4F)CC3)cc2-c2nnn[nH]2)cn1 [Example 127]	7.05
O=C(Nc1ccc(-c2ccc(C(F)(F)F)nc2)c(-c2nnn[nH]2)c1)C1(c2ccc(F)cc2)CC1 [Example 204]	6.90
Cc1ccc(-c2ccc(NC(=O)C3(c4cccc(Cl)c4)CC3)cc2-c2nnn[nH]2)cn1 [Example 208]	7.65
COCc1ccc(-c2ccc(NC(=O)C3(c4cccc(Cl)c4)CC3)cc2-c2nnn[nH]2)cn1 [Example 125]	7.63
CCCOc1ccc(-c2ccc(NC(=O)C3(c4ccc(F)cc4F)CC3)cc2-c2nnn[nH]2)cn1 [Example 112]	7.79

[1] Cc1ccc(C2(C(=O)Nc3ccc(-n4cc(C(C)C)cn4)c(-c4nnn[nH]4)c3)CC2)c(F)c1 [Example 398]
[2] O=C(Nc1ccc(-n2cc(C(F)F)cn2)c(-c2nnn[nH]2)c1)C1(c2ccc(C(F)(F)F)cc2F)CC1 [Example 346]
Lookup: Could you tell me which of 1 and 2 has the lower pIC50 reading? Indicate which entry you chose by stating its label.
Found: 2
(2: 7.18, 1: 7.69)

* * *

# system name: native human Bradykinin B1 receptor (Homo sapiens, UniProt P46663)
# Construct: which express native human Bradykinin B1 receptor after induction with human IL-10; Coriell Institute
# Sequence (P46663 1-353): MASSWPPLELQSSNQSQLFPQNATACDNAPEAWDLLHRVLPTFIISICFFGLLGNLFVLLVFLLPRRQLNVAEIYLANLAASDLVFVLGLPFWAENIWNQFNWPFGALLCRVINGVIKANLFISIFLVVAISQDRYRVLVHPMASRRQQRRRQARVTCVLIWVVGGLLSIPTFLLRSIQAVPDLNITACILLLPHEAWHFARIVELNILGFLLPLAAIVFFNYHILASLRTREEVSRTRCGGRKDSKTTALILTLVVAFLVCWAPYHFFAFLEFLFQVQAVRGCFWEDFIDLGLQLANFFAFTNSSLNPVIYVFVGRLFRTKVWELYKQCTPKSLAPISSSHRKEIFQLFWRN
# assay explanation: Calcium flux Assay (FLIPR) with human fibroblasts expressing Bradykinin B1 receptor (hB1 IMR-90)
# applied conditions: IMR-90 human fibroblasts expressing native Bradykinin B1 receptor
endpoint label: IC50 (nM)

O=C(Nc1ccc(-c2cnc(C(F)(F)F)nc2)c(-c2nnn[nH]2)c1)C1(c2cccc(Cl)c2)CC1 [Example 196]	1450
O=C(Nc1ccc(-c2ccc(C(F)(F)F)nc2)c(-c2nnn[nH]2)c1)C1(c2ccc(OC(F)(F)F)cc2F)CC1 [Example 294]	6.13
COc1ccc(-c2ccc(NC(=O)C3(c4ccc(F)c(C)c4)CC3)cc2-c2nnn[nH]2)cc1OC [Example 48]	29.3
O=C(Nc1ccc(-c2ccc(C(F)(F)F)nc2)c(-c2nnn[nH]2)c1)C1(c2ccc(C(F)(F)F)cc2)CC1 [Example 140]	85.1
O=C(Nc1cc(F)c(-c2ccc(C(F)(F)F)nc2)c(-c2nnn[nH]2)c1)C1(c2ccc(C(F)(F)F)cc2F)CC1 [Example 242]	22.8

[1] COc1ccc(-c2ccc(NC(=O)C3(c4ccccc4Cl)CC3)cc2-c2nnn[nH]2)cc1OC [Example 36]
[2] O=C(Nc1ccc(-c2ccc(C(F)(F)F)nc2)c(-c2nnn[nH]2)c1)C1(c2ccc(C(F)(F)F)cc2F)CC1 [Example 191]
Lookup: From the items above, decide which of 1 and 2 has the lower IC50 reading. Bench note: the answer is the label of the chosen record.
Found: 2
(2: 20.5 nM, 1: 104 nM)

* * *

# system name: human Bradykinin B1 receptor (Homo sapiens)
# Construct: host or cells: CHO-K1
# assay explanation: Calcium flux Assay (FLIPR) with recombinant CHO-K1 cells expressing human Bradykinin B1 receptor, in presence (hB1 IC50) or absence (hB1 free IC50) of 0.1% BSA
# Type: cell-based
# applied conditions: in presence of 0.1% BSA, read-out: hB1 IC50
endpoint label: IC50 (nM)

These recorded examples may help you get a feel for the data.
COc1ccc(-c2c(C)cc(NC(=O)C3(c4cccc(Cl)c4)CC3)cc2-c2nnn[nH]2)cc1OC [Example 250]	240
O=C(Nc1cc(-c2nnn[nH]2)c(-c2ccc(C(F)(F)F)nc2)cc1O)C1(c2cccc(Cl)c2)CC1 [Example 262]	72.3
COc1ccc(-c2ccc(NC(=O)C3(CC(C)C)CC3)cc2-c2nnn[nH]2)cc1OC [Example 55]	2060

[1] CCOc1cc(-c2ccc(NC(=O)C3(c4cccc(Cl)c4)CC3)cc2-c2nnn[nH]2)cc(C(F)(F)F)n1 [Example 166]
[2] COc1ccc(-c2ccc(NC(=O)C3(c4ccc(OC(F)(F)F)cc4)CC3)cc2-c2nnn[nH]2)cc1OC [Example 19]
[3] CCOc1ccc(-c2ccc(NC(=O)C(C)(C)c3cccc(Cl)c3)cc2-c2nnn[nH]2)cn1 [Example 67]
Lookup: Ordering: ascending IC50. Respond with the label ranking, as requested.
Found: 2, 3, 1
(2: 42.9 nM, 3: 394 nM, 1: 2160 nM)

These entries and their values trace back to patent US20210317092A1.
